pIC50: −log10 of the molar value.
From various publications: pIC50 for C-X-C chemokine receptor type 4 (Homo sapiens).

Recorded results for 3 compounds are shown here.
| COMPOUND | pIC50 |
| --- | --- |
| C=CCN(C(=O)OCc1ccc([N+](=O)[O-])cc1)C1CCN(CCC(Cn2cnc3ccccc32)c2ccccc2)CC1 (centres undefined) | < 6.00 |
| CC(C)N1CCC[C@H](Cn2c(CN(C)[C@H]3CCCc4cccnc43)nc3ccccc32)C1 | 8.35 |
| CCN(C(=O)OCc1ccccc1)C1CCN(CCC(CN2C(=O)N[C@H](Cc3c[nH]c4ccccc34)C2=O)c2ccccc2)CC1 (some centres undefined) | < 6.00 |

# pIC50 (compound: C=CCN(C(=O)OCc1ccccc1)C1CCN(CCC(CN2C(=O)N[C@H](Cc3c[nH]c4ccccc34)C2=O)c2cccc(Cl)c2)CC1 (some centres undefined) ) is < 6.00

# pIC50 (compound: CN(Cc1nc2ccccc2n1CCCN)C1CCCc2cccnc21 (centres undefined) ) is 7.33

# pIC50 (compound: C=CCN(C(=O)OCc1ccc([N+](=O)[O-])cc1)C1CCN(CCC(Cn2c(CC)nc3ccccc32)c2ccccc2)CC1 (centres undefined) ) is < 6.00

# pIC50 (compound: CCCCC1C(=O)N(C[C@H]2CC[C@H](OCC)CC2)CCC12CCN(C1(C)CCN(C(=O)c3c(C)ncnc3C)CC1)CC2 (some centres undefined) ) is < 4.30

# pIC50 (compound: CCCC[C@H]1CN(CC2CCOCC2)C(=O)OC12CCN(C1(C)CCN(C(=O)c3c(C)ncnc3C)CC1)CC2 ) is < 4.30

# pIC50 (compound: C[C@@H](NC(=O)[C@H](CCCNC(=N)N)NC(=O)c1ccc(CNC(=O)c2ccc(C(F)(F)F)cc2)cc1)c1cccc2ccccc12 ) is < 6.00
